The values you see were collected from patent US12054447B2.

# measurement_protocol: Pharmacokinetics (PK) of AOH1160 in animals
# Assay type: in vivo, Rat
# condition_set: rat, in vivo, po, 20 mg/kg, Rat PO 20 mg/kg, Single dosing
endpoint_name: half-life (min)

O=C(CNC(=O)c1cccc2ccccc12)Nc1ccccc1Oc1ccccc1 :: 228

###

Observed log10 of GI50 for SW-620, reported per entry below.
endpoint_name: log10 of GI50 (log10 of the value in nM)

O=C(CNC(=O)c1cccc2ccccc12)Nc1ccccc1Oc1ccccc1 :: 2.45
O=C(CNC(=O)c1cccc2ccccc12)Nc1ccccc1Oc1ccc(O)cc1 :: 2.96
COc1ccc(Oc2ccccc2NC(=O)CNC(=O)c2cccc3ccccc23)cc1 :: 2.83
COc1cccc(Oc2ccccc2NC(=O)CNC(=O)c2cccc3ccccc23)c1 :: 2.22
O=C(CNC(=O)c1cccc2ccccc12)Nc1ccccc1Oc1cccc(O)c1 :: 3.49
